The reported numbers originate from the supplement of paper PMC10567573.

B1: TMEM106C (parent)
chain: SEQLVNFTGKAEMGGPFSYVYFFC

- Variants of: B1
- procedureText: protein stability index of a GFP-peptide fusion (GPS, HEK-293T) (PSI 1-6); higher = more stable;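 further: lentivirally expressed fusions sorted by FACS into six bins by GFP to DsRed ratio, PSI derived from sequencing read proportions per bin multiplied by bin number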
- conditions: c terminus: a fixed tail appended
Assign class by protein stability index: not lower than 3 means yes (1); lower than 3 means no (0).

G15C :: no (0)
L4E :: no (0)
F7E :: yes (1)
G15L :: no (0)
E12Q :: yes (1)
F17T :: no (0)
G14N :: no (0)
F23S :: yes (1)
F22D :: no (0)
Y21S :: no (0)

Lookup: Is protein stability index at least 3? Consider A11G
Found: no (0)

Lookup: # iterate: F23H
Found: no (0)

Lookup: # iterate: V5T
Found: no (0)

Lookup: # iterate: C24D
Found: no (0)

Lookup: # iterate: N6F
Found: no (0)
